Here's what we have: Ki numbers for Apoptosis regulator Bcl-2 (Homo sapiens).
property.name: Ki (nM)

a: Cc1oc2c(CC(C)C)c(O)c(O)c(O)c2c(=O)c1-c1ccccc1
b: Cc1cc(=O)c2c(O)c(O)c(O)c(CC(C)C)c2o1
c: Cc1oc2c(CC(C)C)c(O)c(O)c(O)c2c(=O)c1-c1ccc(-c2c(C)oc3c(CC(C)C)c(O)c(O)c(O)c3c2=O)cc1
Exam item: Arrange the 3 molecules by rising Ki, starting with the smallest. Please list each label once, in the requested order.
Marked response: c, a, b
(c: 17 nM, a: 340 nM, b: 730 nM)

====

# Tested on: MDA-MB-231
# experimental.details: Growth inhibition of human MDA-MB-231 cells after 4 days by WST-based assay
# Type: functional, cell-based
# experimental.conditions: MDA-MB-231, 96 h
property.name: IC50 (µM)

smiles.data	measure.unit	result
Cc1cc2c(C(C)C)c(O)c(O)c(C=O)c2c(O)c1-c1c(C)cc2c(C(C)C)c(O)c(O)c(C=O)c2c1O	µM	1.9

I: Cc1oc2c(CC(C)C)c(O)c(O)c(O)c2c(=O)c1-c1ccc(-c2c(C)oc3c(CC(C)C)c(O)c(O)c(O)c3c2=O)cc1
II: Cc1oc2c(CC(C)C)c(O)c(O)c(O)c2c(=O)c1-c1ccccc1
III: Cc1cc(=O)c2c(O)c(O)c(O)c(CC(C)C)c2o1
Exam item: Please list these compounds in decreasing order of IC50. Please list each label once, in the requested order.
Marked response: III, II, I

====

# assayed.target: Induced myeloid leukemia cell differentiation protein Mcl-1 (Homo sapiens, UniProt Q07820)
# Sequence (Q07820 whole entry): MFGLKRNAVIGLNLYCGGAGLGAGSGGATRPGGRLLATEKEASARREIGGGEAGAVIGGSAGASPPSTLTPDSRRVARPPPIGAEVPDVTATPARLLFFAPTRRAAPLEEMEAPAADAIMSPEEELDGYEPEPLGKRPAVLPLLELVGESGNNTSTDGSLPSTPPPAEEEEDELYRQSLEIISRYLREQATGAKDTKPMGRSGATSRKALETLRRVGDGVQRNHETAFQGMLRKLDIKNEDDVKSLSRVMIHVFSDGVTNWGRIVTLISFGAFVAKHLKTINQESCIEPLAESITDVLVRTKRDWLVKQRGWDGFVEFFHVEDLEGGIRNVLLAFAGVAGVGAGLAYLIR
# experimental.details: Displacement of FAM-Bim peptide from human Mcl1 by fluorescence polarization assay
pKi: −log10 of the molar value.
property.name: pKi

smiles.data	pKi
Cc1cc2c(C(C)C)c(O)c(O)c(C=O)c2c(O)c1-c1c(C)cc2c(C(C)C)c(O)c(O)c(C=O)c2c1O	6.55

a: Cc1cc(=O)c2c(O)c(O)c(O)c(CC(C)C)c2o1
b: Cc1oc2c(CC(C)C)c(O)c(O)c(O)c2c(=O)c1-c1ccccc1
c: Cc1oc2c(CC(C)C)c(O)c(O)c(O)c2c(=O)c1-c1ccc(-c2c(C)oc3c(CC(C)C)c(O)c(O)c(O)c3c2=O)cc1
Exam item: Please list these compounds in decreasing order of pKi. Please list each label once, in the requested order.
Marked response: c, b, a
(c: 7.74, b: 6.40, a: 5.77)
